Reference for the values: ChEMBL document CHEMBL1961873

// inhibition lookup, one value per entry
# tgt: Inhibitor of nuclear factor kappa-B kinase subunit beta (Homo sapiens)
# condition_context: at 1 µM;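 also: reported as mean inhibition, from the GSK PKIS screening set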
measurement_label: inhibition (%)

[[record]]
structure_smiles_string = "c1ccc(Cc2nc3ccc(Nc4ncnc5ccccc45)cc3[nH]2)cc1"
tgt = "Inhibitor of nuclear factor kappa-B kinase subunit beta (Homo sapiens)"
value_units = "%"
reported = 8.45

[[record]]
structure_smiles_string = "Nc1nccc(-c2c(-c3ccc(F)cc3)ncn2CCCN2CCOCC2)n1"
tgt = "Inhibitor of nuclear factor kappa-B kinase subunit beta (Homo sapiens)"
value_units = "%"
reported = 5.49

[[record]]
structure_smiles_string = "CCn1c(-c2nonc2N)nc2c(C#CC(C)(C)O)nc(OCCNC)cc21"
tgt = "Inhibitor of nuclear factor kappa-B kinase subunit beta (Homo sapiens)"
value_units = "%"
reported = 8.81

[[record]]
structure_smiles_string = "COc1ccc2ncnc(Nc3ccc(OCc4ccccc4)cc3)c2c1"
tgt = "Inhibitor of nuclear factor kappa-B kinase subunit beta (Homo sapiens)"
value_units = "%"
reported = 3.67

[[record]]
structure_smiles_string = "O=C(Nc1ccc(Oc2ccc3[nH]c(NC(=O)c4ccco4)nc3c2)cc1)Nc1cc(C(F)(F)F)ccc1F"
tgt = "Inhibitor of nuclear factor kappa-B kinase subunit beta (Homo sapiens)"
value_units = "%"
reported = -1.89

[[record]]
structure_smiles_string = "COc1cccc(-n2ncc3c(N/N=C/c4ccc(S(C)(=O)=O)cc4)ncnc32)c1"
tgt = "Inhibitor of nuclear factor kappa-B kinase subunit beta (Homo sapiens)"
value_units = "%"
reported = -0.15

[[record]]
structure_smiles_string = "CCS(=O)(=O)c1ccc(OC)c(Nc2ncc(-c3cccc(OC)c3)o2)c1"
tgt = "Inhibitor of nuclear factor kappa-B kinase subunit beta (Homo sapiens)"
value_units = "%"
reported = 1.16

[[record]]
structure_smiles_string = "NC(=O)c1cccc(Nc2nccc(Nc3cccc(F)c3)n2)c1"
tgt = "Inhibitor of nuclear factor kappa-B kinase subunit beta (Homo sapiens)"
value_units = "%"
reported = 22.3

[[record]]
structure_smiles_string = "NS(=O)(=O)c1ccc(-c2cc3ccncc3cc2OCc2ccccc2)cc1"
tgt = "Inhibitor of nuclear factor kappa-B kinase subunit beta (Homo sapiens)"
value_units = "%"
reported = 21.9

[[record]]
structure_smiles_string = "N#Cc1cccc(Nc2nccc(-c3cnn4ncccc34)n2)c1"
tgt = "Inhibitor of nuclear factor kappa-B kinase subunit beta (Homo sapiens)"
value_units = "%"
reported = 20.5

